TARGET OF ASSAY: DNA topoisomerase 1 (Homo sapiens, UniProt P11387)
Sequence (P11387 whole entry): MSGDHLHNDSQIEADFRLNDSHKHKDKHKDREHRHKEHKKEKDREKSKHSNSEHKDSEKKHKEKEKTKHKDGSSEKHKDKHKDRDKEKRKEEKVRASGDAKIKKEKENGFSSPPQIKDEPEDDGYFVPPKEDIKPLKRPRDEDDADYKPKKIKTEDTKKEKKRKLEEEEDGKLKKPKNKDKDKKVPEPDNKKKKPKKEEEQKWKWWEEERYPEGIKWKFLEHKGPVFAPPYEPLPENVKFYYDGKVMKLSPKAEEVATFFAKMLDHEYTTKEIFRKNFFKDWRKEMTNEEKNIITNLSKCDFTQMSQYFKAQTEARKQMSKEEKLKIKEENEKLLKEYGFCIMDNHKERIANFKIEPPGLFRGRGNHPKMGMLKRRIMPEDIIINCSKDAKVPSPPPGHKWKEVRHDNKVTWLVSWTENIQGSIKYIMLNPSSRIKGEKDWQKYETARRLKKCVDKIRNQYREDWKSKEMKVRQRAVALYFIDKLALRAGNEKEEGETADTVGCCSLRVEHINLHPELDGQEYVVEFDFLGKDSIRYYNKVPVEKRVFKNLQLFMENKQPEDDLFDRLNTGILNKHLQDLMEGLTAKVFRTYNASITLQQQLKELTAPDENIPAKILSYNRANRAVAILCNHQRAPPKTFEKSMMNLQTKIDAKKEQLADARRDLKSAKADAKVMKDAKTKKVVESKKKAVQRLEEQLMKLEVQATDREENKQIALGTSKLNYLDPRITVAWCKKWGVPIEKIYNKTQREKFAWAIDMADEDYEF
ASSAY NAME: Topoisomerase I activity for single-strand breaks in the DNA substrate
QUANTITY NAME: EC50 (µM)
# number only, unit µM dropped from output

Previously resolved entries follow.
>>> df
                                   compound                           target_of_assay  readout_unit  numeric_readout
0  O=C1NC(=O)c2c1c1c3cc(F)ccc3sc1c1c2c2cc(F)ccc2n1C1OC(CF)C(O)C(O)C1O (stereo not drawn)  DNA topoisomerase 1 (Homo sapiens, UniProt P11387)            µM             0.42
1  O=C1NC(=O)c2c1c1c3cc(F)ccc3[nH]c1c1c2c2cc(F)ccc2n1C1OC(CF)C(O)C(O)C1O (stereo in doubt; 6)  DNA topoisomerase 1 (Homo sapiens, UniProt P11387)            µM             0.48

Here is the next item to consider.
// lookup EC50 for O=C1NC(=O)c2c1c1c3cc(F)c(F)cc3sc1c1c2c2cc(F)c(F)cc2n1C1OC(CO)C(F)C(O)C1O (stereo not drawn)
0.04
